molecular target: T1, Human CD137 ECD (human); assay: single mutant vs template dBBDu183H
T1 construct: also called 4-1BB
T1 sequence (chain, as listed by the source limits assumed): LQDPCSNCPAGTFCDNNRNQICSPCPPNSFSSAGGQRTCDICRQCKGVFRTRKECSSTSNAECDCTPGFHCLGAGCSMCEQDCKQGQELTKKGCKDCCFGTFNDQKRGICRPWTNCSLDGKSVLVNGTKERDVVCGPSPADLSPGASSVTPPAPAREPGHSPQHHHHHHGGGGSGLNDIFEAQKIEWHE
Observation type: fold change of affinity (fold)
One number for each entry, in fold.

1. H183/L072 VH Y59R (antibody, name in Kabat numbering, V domains shown) VH: QVQLVESGGGLVQPGRSLRLSCAASGFTFSNAWMHWVRQAPGKGLEWVAQIKDKGNAYAAYRAPSVKGRFTISRDDSKNSIYLQMNSLKTEDTAVYYCHYVHYASASTVLPAFGVDAWGQGTTVTVSS VL: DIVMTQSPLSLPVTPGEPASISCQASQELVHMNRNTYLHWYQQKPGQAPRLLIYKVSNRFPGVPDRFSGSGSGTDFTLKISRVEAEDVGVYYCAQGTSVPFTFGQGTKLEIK; 0.9
2. H183/L072 VH A100fI (antibody, name in Kabat numbering, V domains shown) VH: QVQLVESGGGLVQPGRSLRLSCAASGFTFSNAWMHWVRQAPGKGLEWVAQIKDKGNAYAAYYAPSVKGRFTISRDDSKNSIYLQMNSLKTEDTAVYYCHYVHYASASTVLPIFGVDAWGQGTTVTVSS VL: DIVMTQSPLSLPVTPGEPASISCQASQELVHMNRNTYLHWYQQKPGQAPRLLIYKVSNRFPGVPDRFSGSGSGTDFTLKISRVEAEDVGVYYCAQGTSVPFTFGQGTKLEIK; 0

Hi! Can you tell me fold change of affinity for each of these binders?
1. H183/L072 VH F29W (antibody, name in Kabat numbering, V domains shown) VH: QVQLVESGGGLVQPGRSLRLSCAASGFTWSNAWMHWVRQAPGKGLEWVAQIKDKGNAYAAYYAPSVKGRFTISRDDSKNSIYLQMNSLKTEDTAVYYCHYVHYASASTVLPAFGVDAWGQGTTVTVSS VL: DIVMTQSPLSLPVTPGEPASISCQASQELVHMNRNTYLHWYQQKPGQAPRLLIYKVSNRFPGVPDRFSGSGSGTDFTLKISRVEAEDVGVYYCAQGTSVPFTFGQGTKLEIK
2. H183/L072 VH M34P (antibody, name in Kabat numbering, V domains shown) VH: QVQLVESGGGLVQPGRSLRLSCAASGFTFSNAWPHWVRQAPGKGLEWVAQIKDKGNAYAAYYAPSVKGRFTISRDDSKNSIYLQMNSLKTEDTAVYYCHYVHYASASTVLPAFGVDAWGQGTTVTVSS VL: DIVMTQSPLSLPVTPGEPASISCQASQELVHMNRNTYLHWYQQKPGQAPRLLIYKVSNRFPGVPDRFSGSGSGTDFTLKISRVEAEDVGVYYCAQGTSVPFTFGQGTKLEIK
3. H183/L072 VH Q50Y (antibody, name in Kabat numbering, V domains shown) VH: QVQLVESGGGLVQPGRSLRLSCAASGFTFSNAWMHWVRQAPGKGLEWVAYIKDKGNAYAAYYAPSVKGRFTISRDDSKNSIYLQMNSLKTEDTAVYYCHYVHYASASTVLPAFGVDAWGQGTTVTVSS VL: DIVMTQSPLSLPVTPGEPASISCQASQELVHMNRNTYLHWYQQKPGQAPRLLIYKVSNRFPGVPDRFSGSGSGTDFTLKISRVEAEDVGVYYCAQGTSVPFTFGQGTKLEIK
4. H183/L072 VH W33L (antibody, name in Kabat numbering, V domains shown) VH: QVQLVESGGGLVQPGRSLRLSCAASGFTFSNALMHWVRQAPGKGLEWVAQIKDKGNAYAAYYAPSVKGRFTISRDDSKNSIYLQMNSLKTEDTAVYYCHYVHYASASTVLPAFGVDAWGQGTTVTVSS VL: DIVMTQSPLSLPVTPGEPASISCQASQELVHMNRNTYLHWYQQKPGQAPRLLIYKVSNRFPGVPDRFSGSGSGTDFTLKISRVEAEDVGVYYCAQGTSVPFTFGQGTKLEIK
5. H183/L072 VH A57I (antibody, name in Kabat numbering, V domains shown) VH: QVQLVESGGGLVQPGRSLRLSCAASGFTFSNAWMHWVRQAPGKGLEWVAQIKDKGNAYAIYYAPSVKGRFTISRDDSKNSIYLQMNSLKTEDTAVYYCHYVHYASASTVLPAFGVDAWGQGTTVTVSS VL: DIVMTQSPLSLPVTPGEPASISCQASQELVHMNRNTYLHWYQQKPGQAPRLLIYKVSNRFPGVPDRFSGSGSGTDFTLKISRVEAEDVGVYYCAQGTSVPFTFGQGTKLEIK
6. H183/L072 VH Y55N (antibody, name in Kabat numbering, V domains shown) VH: QVQLVESGGGLVQPGRSLRLSCAASGFTFSNAWMHWVRQAPGKGLEWVAQIKDKGNANAAYYAPSVKGRFTISRDDSKNSIYLQMNSLKTEDTAVYYCHYVHYASASTVLPAFGVDAWGQGTTVTVSS VL: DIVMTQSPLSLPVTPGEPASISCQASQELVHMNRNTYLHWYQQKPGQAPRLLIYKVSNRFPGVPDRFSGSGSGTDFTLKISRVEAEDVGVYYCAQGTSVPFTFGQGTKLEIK
7. H183/L072 VH Y59D (antibody, name in Kabat numbering, V domains shown) VH: QVQLVESGGGLVQPGRSLRLSCAASGFTFSNAWMHWVRQAPGKGLEWVAQIKDKGNAYAAYDAPSVKGRFTISRDDSKNSIYLQMNSLKTEDTAVYYCHYVHYASASTVLPAFGVDAWGQGTTVTVSS VL: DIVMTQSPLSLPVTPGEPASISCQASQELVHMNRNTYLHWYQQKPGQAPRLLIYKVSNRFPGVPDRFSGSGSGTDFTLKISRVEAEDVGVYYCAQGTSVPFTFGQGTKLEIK
8. H183/L072 VH G52cM (antibody, name in Kabat numbering, V domains shown) VH: QVQLVESGGGLVQPGRSLRLSCAASGFTFSNAWMHWVRQAPGKGLEWVAQIKDKMNAYAAYYAPSVKGRFTISRDDSKNSIYLQMNSLKTEDTAVYYCHYVHYASASTVLPAFGVDAWGQGTTVTVSS VL: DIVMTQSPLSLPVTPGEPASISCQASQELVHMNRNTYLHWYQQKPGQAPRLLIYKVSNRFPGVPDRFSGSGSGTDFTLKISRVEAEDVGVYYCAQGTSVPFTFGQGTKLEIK

# output
0.1
0.3
3.1
0
0.1
0.7
0.8
0.6
